- method-summary: Induction of ROS generation in aqueous solution assessed as singlet oxygen generation (1O2) at 10 ug/ml pretreated with compound followed by light irradiation for 28 mins by fluorescence based analysis
- Type: functional
- condition-summary: dose 10.0 µg/ml
The source made the active and inactive calls. The calls are words filed in the database; no cut-off is given here.
Hello, when you answer, please use one of the following outcomes: class 1 = active, class 0 = inactive

Worked set:
COc1ccc2c(c1)CC[n+]1cc3c4c(ccc3cc1-2)OCO4 ... class 0
COc1ccc2c(c1)CC[n+]1cc3cc4c(cc3cc1-2)OCO4 ... class 1
COc1ccc2c(c1)CC[n+]1cc3cc(OC)ccc3cc1-2.[Cl-] ... class 1
COc1ccc2c(c1)CC[n+]1cc3ccccc3cc1-2 ... class 0

QUERY: Fill in: this test's call for COc1ccc2c(c1)CC[n+]1cc3c(OC)cccc3cc1-2.[Cl-] is ___
RESULT: class 1

====

- method-summary: Stability of the compound in the solution assessed as fluorescence intensity measured after 28 mins of light exposure by fluorescence based analysis
- Format: physicochemical
- condition-summary: read-out: Stability
# remaining at 28 min per record follows
Express your answer in %, writing the number without its unit.

CCCCN1C(=O)C(=C/C=C/C2C(=O)N(CCCC)C(=O)N(CCCC)C2=O)C(=O)N(CCCC)C1=O ... 40

QUERY: Please report the recorded remaining at 28 min for COc1ccc2cc3[n+](cc2c1OC)CCc1cc2c(cc1-3)OCO2.[Cl-] [BERBERINE CHLORIDE] .
RESULT: 60
